assay: Selectivity index, ratio of CC50 for green monkey Vero-B cells to EC50 for Yellow fever virus infected in green monkey Vero-B cells; format: toxicity, cell-based; details: read-out: Ratio CC50/EC50
Criterion: selectivity ratio strictly less than 3. Met: 1 (yes). Not met: 0 (no).

Ask: Does `Cc1ccc(NC(=O)c2nccnc2C(=O)Nc2ccc(C)cc2-c2cccnc2)cc1` have selectivity ratio strictly under 3?
Result: 0 (no)

---

assay: Selectivity index, ratio of CC50 for green monkey Vero-B cells to EC50 for Yellow fever virus infected in green monkey Vero-B cells; assay type: toxicity, cell-based; settings: read-out: Ratio CC50/EC50
Recorded selectivity ratio split into classes class 0 = under 2, class 1 = from 2 up to 10, class 2 = 10 and over

Here's what some known entries look like.
Cc1cc(-c2ccccc2NC(=O)c2nc[nH]c2C(=O)Nc2ccc(F)cc2)[nH]n1
class 2
Cc1ccc(NC(=O)c2nc[nH]c2C(=O)Nc2ccc(F)cc2)c(-c2ccsc2)c1
class 0
O=C(NCc1ccc(-c2ccncc2)cc1)c1nccnc1C(=O)Nc1ccc(F)cc1
class 2
O=C(NCc1ccc(-c2ccsc2)cc1)c1nc[nH]c1C(=O)Nc1ccc(F)cc1
class 1
Cc1ccc(NC(=O)c2nccnc2C(=O)Nc2ccccc2-c2cccnc2)cc1
class 0

Now take the following compound into account.
Ask: # bin lookup: classify `Cc1cnc(NC(=O)c2[nH]cnc2C(=O)Nc2ccccc2)c(-c2ccc(C)s2)c1` by its selectivity ratio
Result: class 0

---

assay: Selectivity index, ratio of CC50 for green monkey Vero-B cells to EC50 for Dengue virus infected in green monkey Vero-B cells; assay type: toxicity, cell-based; conditions: read-out: Ratio CC50/EC50
Listing of recorded selectivity ratio by entry.
// return just the number, without any unit appended

Consider the reported selectivity ratio for these molecules:
Cc1ccc(NC(=O)c2nccnc2C(=O)Nc2ccc(C)cc2-c2ccncc2)cc1
10
O=C(NCc1ccc(-c2ccncc2)cc1)c1nc[nH]c1C(=O)Nc1ccc(F)cc1
1
Cc1cc(-c2ccccc2NC(=O)c2nc[nH]c2C(=O)Nc2ccc(F)cc2)[nH]n1
3.6

Would you kindly look at the next entry?
Ask: Give me measured selectivity ratio, please, for this molecule: `O=C(NCc1ccccc1-c1ccsc1)c1nc[nH]c1C(=O)Nc1ccc(F)cc1`
Result: 1.95

---

experiment: Selectivity index, ratio of CC50 for green monkey Vero-B cells to EC50 for Yellow fever virus infected in green monkey Vero-B cells; format: toxicity, cell-based; conditions: read-out: Ratio CC50/EC50
metricName: selectivity ratio
Would you mind answering with just the numeric figure?

Sample answers from the record:
Cc1ccc(NC(=O)c2nc[nH]c2C(=O)Nc2ccc(F)cc2)c(-c2cc(C)n[nH]2)c1
34.5
Cc1ccc(NC(=O)c2nccnc2C(=O)NCc2ccccc2-c2ccncc2)cc1
1.7
Cc1ccc(NC(=O)c2nccnc2C(=O)Nc2ccc(F)cc2)c(-c2ccncc2)c1
2.6

Next item in the queue.
Ask: Please give measured selectivity ratio of the following entry: `Cc1ccc(NC(=O)c2nccnc2C(=O)Nc2ccc(C)cc2-c2ccncc2)cc1`
Result: 3.8

---

assay: Selectivity index, ratio of CC50 for green monkey Vero-B cells to EC50 for Yellow fever virus infected in green monkey Vero-B cells; format: toxicity, cell-based; conditions: read-out: Ratio CC50/EC50
Reported selectivity ratio values are given for each entry in this list.
Lab note: record just the number, no unit beside it.

Cc1ccc(NC(=O)c2nccnc2C(=O)Nc2ccccc2-c2ccncc2)cc1
10
Cc1ccc(NC(=O)c2nc[nH]c2C(=O)Nc2ccccc2)c(-c2ccsc2)c1
13
O=C(Nc1ccc(F)cc1)c1nccnc1C(=O)Nc1ccccc1-c1cccnc1
2.5
Cc1ccc(NC(=O)c2nccnc2C(=O)NCc2ccc(-c3ccncc3)cc2)cc1
3
O=C(NCc1ccccc1-c1ccsc1)c1nc[nH]c1C(=O)Nc1ccc(F)cc1
13.2
Cc1ccc(NC(=O)c2nccnc2C(=O)Nc2ccc(F)cc2)c(-c2cccnc2)c1
9
Cc1ccc(NC(=O)c2[nH]cnc2C(=O)Nc2ccc(C)cc2-c2ccsc2)cc1
1

Could you now consider this next compound?
Ask: Give me measured selectivity ratio, please, for this compound: `O=C(NCc1ccc(-c2cccnc2)cc1)c1nccnc1C(=O)Nc1ccc(F)cc1`
Result: 13
